molecular target: T1, Heat-denatured BSA (bovine serum albumin autoclaved for 15 minutes) (bovine, UniProt P02769 25-607); experiment: turbidity (OD550) against peptide concentration, Hill plot analysis
T1 construct: also called heat-denatured BSA solution; reagent for detection
T1 sequence (P02769 25-607 limits assumed): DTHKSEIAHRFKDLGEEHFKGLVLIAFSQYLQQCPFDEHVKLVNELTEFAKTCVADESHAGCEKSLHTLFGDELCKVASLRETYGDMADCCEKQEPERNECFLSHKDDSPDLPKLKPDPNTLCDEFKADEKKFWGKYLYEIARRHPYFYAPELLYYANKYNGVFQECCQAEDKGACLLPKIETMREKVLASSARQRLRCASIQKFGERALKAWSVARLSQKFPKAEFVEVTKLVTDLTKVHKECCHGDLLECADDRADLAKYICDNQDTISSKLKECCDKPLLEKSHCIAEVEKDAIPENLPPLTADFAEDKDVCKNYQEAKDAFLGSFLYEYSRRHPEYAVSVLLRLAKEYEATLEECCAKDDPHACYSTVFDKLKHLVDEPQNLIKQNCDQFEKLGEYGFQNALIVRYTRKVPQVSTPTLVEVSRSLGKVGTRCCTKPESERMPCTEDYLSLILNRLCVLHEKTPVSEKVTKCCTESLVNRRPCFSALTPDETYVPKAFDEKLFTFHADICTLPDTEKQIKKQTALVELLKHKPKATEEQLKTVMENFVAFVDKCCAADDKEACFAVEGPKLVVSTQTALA
quantity kind: pKd
// field semantics: pKd = negative decimal log of concentration (mol/L)

Read the entry SYSMEHFRWGKPVGKKRRPVKVYP (also called basic peptide of interest) [partial ACTH peptide consisting of the amino acids of positions 1 to 24 of ACTH] and write its reported pKd.
4.52
